Provenance of the data: paper PMC3573033

Test system: T1, HtrA2 (High temperature requirement protease A2), mature (Δ133 HtrA2), wild type (UniProt O43464 134-458)
T1 construct: HtrA2 (High temperature requirement protease A2), mature form Δ133, 325 amino acids; numbers count on: the mature protein; source: E. coli BL21 (DE3) pLysS, purified (nickel-IDA, gel permeation chromatography)
T1 sequence (looked up): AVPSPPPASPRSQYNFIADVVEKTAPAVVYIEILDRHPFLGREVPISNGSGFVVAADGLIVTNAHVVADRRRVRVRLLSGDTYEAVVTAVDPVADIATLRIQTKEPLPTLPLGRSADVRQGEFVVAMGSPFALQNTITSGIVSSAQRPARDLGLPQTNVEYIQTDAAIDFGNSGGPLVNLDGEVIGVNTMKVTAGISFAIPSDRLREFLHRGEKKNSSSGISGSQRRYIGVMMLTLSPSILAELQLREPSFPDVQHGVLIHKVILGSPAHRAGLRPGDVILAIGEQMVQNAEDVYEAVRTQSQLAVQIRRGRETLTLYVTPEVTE
Measurement notes: ITC; MicroCal ITC200; 200 µl of wild type or N216A/S219A HtrA2 (20 to 50 µM) in the cell, titrated with 1.5 µl injections of 0.4 mM activator peptide; 20 mM Na2HPO4/NaH2PO4, 100 mM NaCl, pH 7.8; 25°C; one site-binding model
Condition: both partners purified
Readout label: Kd (µM)
Field: numeric (µM). Do not append units.

Kd for SEHRRHFPNCFFV [13mer activating peptide SEHRRHFPNCFFV] is 7.5
